Assign inhibition at 1000 µg/mL to each entry below.
Study system: recombinant HIV-1 protease (wild type) (Human immunodeficiency virus type 1 group M subtype B, UniProt P04585)
Construct: 8 μL of recombinant HIV-1 protease (wild type); purchased AnaSpec Inc
Protocol details: FRET assay of HIV-1 protease inhibition
Assay type: biochemical
Condition parameters: 1.0 mg/mL; n = 3; read-out: HIV-1 PR Inhibition (%) ± SD at 1.0 (mg/mL)
Give bare numbers, in %.

Chemical structure: COc1ccc(C(C)=O)c(O)c1
inhibition at 1000 µg/mL, %: -12.6

Continue with the molecule presented below.
Req: Suppose we examine the molecule COc1cc2ccc(=O)oc2c(O)c1O ; what inhibition at 1000 µg/mL value has been reported?
Resp: 24.1
